Read-out: Pselectin, SELP (gene 6403)
Protocol Summary: BSK_4H_Pselectin: BioMAP Diversity Plus: 4H Assay for Pselectin Biomarker Activity (AID 2283026)
Experimental Context: primary human endothelial cells (HUVEC); actives raise or lower the signal
The source made the active and inactive calls. The calls were made as follows: active = hit-call score of the fitted dose curve at least 0.9, where 1 is the maximum; inactive = score below 0.9.
Labels: 1 (yes) (active), 0 (no) (inactive)

Compound | Assigned Class
CCCCCCCCN(C)C | 0 (no)
NC(N)=O | 0 (no)
NCC(F)(F)C(F)(F)C(F)(F)C(F)(F)F | 0 (no)
CCCOc1ccc(S(=O)(=O)N2CCN(CC)CC2)cc1-c1nc2c(CC)n(Cc3ccccn3)nc2c(=O)[nH]1 | 0 (no)
O=S(=O)(O)CCC(F)(F)C(F)(F)C(F)(F)C(F)(F)C(F)(F)C(F)(F)F | 0 (no)
COc1cc2c(c(OC)c1OC)-c1ccc(OC)c(=O)cc1[C@@H](NC(C)=O)CC2 | 1 (yes)
Cc1nccn1-c1ccc(Sc2cccc(C3(C(N)=O)CCOCC3)c2)cc1 | 0 (no)
S=P(N1CC1)(N1CC1)N1CC1 | 0 (no)
CC1(C)C(=O)N(Cl)C(=O)N1Cl | 0 (no)
CC(=O)c1ccccc1 | 0 (no)
c1ccc(C(O[C@@H]2CCCN(CCc3ccc4c(c3)OCO4)C2)c2ccccc2)cc1 | 0 (no)
CCCCN1C(=O)[C@@H]([C@H](O)C2CCCCC2)NC(=O)C12CCN(Cc1ccc(Oc3ccc(C(=O)O)cc3)cc1)CC2 | 0 (no)
OCc1ccccc1 | 0 (no)
O=S1(=O)CCCO1 | 0 (no)
Cc1ncc([C@@H](CCCCCCc2ccc3c(n2)NCCC3)CC(=O)O)cn1 | 0 (no)
O=C(O)c1cccc(C(=O)O)c1 | 0 (no)
CCCC(CCC)C(=O)O | 0 (no)
O=S(=O)(O)c1ccc(N=Nc2c(O)ccc3cc(S(=O)(=O)O)ccc23)cc1 | 0 (no)
FC(F)C(F)(F)COCC1CO1 (stereo not given) | 0 (no)
OC(Cn1cncn1)(Cn1cncn1)c1ccc(F)cc1F | 0 (no)
FC(F)=C(F)C(F)(F)C(F)(F)C(F)(F)C(F)(F)C(F)(F)C(F)(F)F | 0 (no)
CCCCCCOC(=O)CC(CC(=O)OCCCCCC)(OC(=O)CCC)C(=O)OCCCCCC | 0 (no)
CC(C)CCCCCCOC(=O)C1CCCCC1C(=O)OCCCCCCC(C)C (stereo not given) | 0 (no)
CCn1nc(C)c2c1C(=O)NCC(c1ccc(O)cc1)=N2 | 0 (no)
FC(F)(F)C(F)(F)C(F)(F)C(F)(F)C(F)(F)C(F)(F)I | 0 (no)
